biological target: WIZ (Homo sapiens, UniProt O95785+Q96SW2); construct: HUDEP-2 cells engineered to express a HiBiT tag in either the WIZ (Widely interspaced zinc finger) or ZBTB7A; experiment: HUDEP-2 WIZ HiBiT degradation assay; assay type: cell-based; settings: HiBiT-tagged WIZ degradation in HUDEP-2 cells, 24 hours of treatment; read-out: WIZ EC50
Sequence (O95785 whole entry): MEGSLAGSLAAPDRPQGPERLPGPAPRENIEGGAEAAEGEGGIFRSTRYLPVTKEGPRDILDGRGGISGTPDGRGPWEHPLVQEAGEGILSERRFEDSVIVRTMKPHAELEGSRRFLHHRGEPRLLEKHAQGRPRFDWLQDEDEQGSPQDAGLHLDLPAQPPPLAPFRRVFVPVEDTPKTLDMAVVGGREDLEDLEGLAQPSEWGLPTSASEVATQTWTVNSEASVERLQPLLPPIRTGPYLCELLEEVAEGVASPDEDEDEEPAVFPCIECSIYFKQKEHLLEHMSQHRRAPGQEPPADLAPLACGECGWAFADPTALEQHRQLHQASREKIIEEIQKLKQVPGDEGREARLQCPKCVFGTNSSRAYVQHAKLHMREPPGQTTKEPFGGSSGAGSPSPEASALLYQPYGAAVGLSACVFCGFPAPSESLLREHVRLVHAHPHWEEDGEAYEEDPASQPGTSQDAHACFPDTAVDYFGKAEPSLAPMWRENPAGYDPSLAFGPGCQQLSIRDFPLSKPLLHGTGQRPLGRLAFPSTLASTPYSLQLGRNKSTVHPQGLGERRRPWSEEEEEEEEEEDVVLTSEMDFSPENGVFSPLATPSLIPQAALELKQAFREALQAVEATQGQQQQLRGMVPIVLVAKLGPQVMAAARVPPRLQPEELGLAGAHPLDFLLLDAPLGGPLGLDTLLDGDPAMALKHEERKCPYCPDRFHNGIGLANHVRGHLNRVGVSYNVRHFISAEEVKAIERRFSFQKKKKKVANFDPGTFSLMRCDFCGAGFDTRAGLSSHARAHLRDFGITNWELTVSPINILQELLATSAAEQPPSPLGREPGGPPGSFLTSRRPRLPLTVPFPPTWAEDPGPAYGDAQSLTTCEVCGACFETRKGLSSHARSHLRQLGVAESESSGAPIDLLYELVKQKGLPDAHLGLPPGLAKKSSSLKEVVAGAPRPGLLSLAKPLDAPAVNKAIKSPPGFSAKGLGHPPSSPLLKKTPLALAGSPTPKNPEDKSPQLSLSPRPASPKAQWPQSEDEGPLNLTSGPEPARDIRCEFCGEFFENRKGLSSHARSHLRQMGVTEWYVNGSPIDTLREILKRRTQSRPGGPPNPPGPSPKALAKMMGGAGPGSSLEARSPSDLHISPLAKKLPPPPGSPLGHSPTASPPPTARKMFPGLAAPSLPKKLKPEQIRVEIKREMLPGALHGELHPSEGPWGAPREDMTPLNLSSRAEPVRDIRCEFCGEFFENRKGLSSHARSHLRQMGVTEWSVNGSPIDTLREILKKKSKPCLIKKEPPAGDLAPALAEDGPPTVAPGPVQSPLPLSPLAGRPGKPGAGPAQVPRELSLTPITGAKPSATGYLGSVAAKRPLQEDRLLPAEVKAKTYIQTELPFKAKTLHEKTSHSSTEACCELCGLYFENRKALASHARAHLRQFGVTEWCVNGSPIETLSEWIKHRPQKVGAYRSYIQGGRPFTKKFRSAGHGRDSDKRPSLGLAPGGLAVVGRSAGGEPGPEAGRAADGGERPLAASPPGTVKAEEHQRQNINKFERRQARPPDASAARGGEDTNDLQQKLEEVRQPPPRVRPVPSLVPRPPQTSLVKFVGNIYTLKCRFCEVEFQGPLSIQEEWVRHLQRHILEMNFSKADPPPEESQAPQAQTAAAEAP
Sequence (Q96SW2 whole entry): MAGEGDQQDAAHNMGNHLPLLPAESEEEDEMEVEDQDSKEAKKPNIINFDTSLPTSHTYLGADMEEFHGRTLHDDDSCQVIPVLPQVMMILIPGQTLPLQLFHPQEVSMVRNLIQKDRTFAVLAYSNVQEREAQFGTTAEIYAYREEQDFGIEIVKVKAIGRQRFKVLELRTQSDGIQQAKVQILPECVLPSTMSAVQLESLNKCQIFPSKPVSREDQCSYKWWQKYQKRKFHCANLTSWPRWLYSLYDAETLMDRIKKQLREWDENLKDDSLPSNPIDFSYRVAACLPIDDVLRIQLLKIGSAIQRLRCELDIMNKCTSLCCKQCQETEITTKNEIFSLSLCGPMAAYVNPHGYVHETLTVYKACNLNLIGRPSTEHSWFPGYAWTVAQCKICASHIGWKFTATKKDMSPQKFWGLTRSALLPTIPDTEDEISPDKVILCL
Sequence (Q16531 whole entry partner): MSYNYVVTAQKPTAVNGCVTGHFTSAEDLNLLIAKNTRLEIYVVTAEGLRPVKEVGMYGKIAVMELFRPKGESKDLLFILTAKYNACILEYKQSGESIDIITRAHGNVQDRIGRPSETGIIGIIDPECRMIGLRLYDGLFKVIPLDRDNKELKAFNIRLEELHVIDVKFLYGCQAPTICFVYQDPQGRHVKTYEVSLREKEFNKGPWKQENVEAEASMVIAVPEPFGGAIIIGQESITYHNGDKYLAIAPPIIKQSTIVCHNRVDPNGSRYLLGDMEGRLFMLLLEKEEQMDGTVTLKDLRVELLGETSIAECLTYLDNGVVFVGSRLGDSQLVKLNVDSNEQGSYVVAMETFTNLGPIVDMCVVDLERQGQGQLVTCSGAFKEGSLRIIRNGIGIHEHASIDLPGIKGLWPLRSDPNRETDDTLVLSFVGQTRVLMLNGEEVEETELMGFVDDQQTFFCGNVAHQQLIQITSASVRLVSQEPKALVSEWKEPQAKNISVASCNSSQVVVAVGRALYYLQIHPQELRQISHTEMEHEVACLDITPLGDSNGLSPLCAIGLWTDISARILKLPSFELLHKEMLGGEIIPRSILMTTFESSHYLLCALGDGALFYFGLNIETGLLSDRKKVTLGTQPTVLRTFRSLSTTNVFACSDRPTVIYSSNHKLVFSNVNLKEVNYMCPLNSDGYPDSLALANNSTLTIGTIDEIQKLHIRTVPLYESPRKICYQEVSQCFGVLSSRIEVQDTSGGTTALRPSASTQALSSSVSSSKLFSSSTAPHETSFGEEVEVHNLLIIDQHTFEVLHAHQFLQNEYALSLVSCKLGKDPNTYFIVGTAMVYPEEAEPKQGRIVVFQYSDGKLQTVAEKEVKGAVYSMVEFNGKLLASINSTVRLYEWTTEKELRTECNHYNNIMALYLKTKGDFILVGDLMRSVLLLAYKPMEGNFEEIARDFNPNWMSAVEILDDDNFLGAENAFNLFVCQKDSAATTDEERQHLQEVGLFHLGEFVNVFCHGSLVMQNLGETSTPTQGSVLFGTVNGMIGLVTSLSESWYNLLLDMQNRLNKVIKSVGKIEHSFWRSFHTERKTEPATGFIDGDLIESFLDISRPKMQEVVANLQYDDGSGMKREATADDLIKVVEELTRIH
OUTCOME MEASURE: DC50 (nM)

In the examples that follow, each entry is paired with its recorded DC50.
COMPOUND: CN1C(=O)COc2cc([C@H]3CC[C@H](C#N)CC3)c(Nc3cccc4c3C(=O)N(C3CCC(=O)NC3=O)C4=O)cc21 (stereo partly drawn) [Compound 53]
DC50 [nM]: 4
--
COMPOUND: CC(=O)N1CCC(c2cc3c(cc2Nc2cccc4c2C(=O)N([C@H]2CCC(=O)NC2=O)C4=O)N(C)C(=O)[C@H](C)O3)CC1 [Compound 31]
DC50 [nM]: 6

a = Cc1cc(-c2cc3c(cc2Nc2cccc4c2C(=O)N([C@H]2CCC(=O)NC2=O)C4=O)N(C)[C@@H](C)CO3)ccn1 [Compound 4]
b = COc1nccc(-c2cc3c(cc2Nc2cccc4c2C(=O)N([C@H]2CCC(=O)NC2=O)C4=O)N(C)C(=O)CO3)c1F [Compound 34]
Of the pair a and b , name the member with the lesser recorded DC50. Your answer should be the label of the entry you select.
b
(b: 11 nM, a: 83 nM)

P = Cc1cc(-c2cc3c(cc2Nc2cccc4c2C(=O)N(C2CCC(=O)NC2=O)C4=O)N(C)C(=O)OC3)cc(C)n1 (stereo not drawn) [Compound 62]
Q = Cc1cc(-c2cc3c(cc2Nc2cccc4c2C(=O)N([C@H]2CCC(=O)NC2=O)C4=O)N(C)C(=O)[C@H](C)O3)cc(C(F)F)n1 [Compound 48]
Pick the one with the larger DC50: P vs Q Reply briefly: the label of your chosen item.
Q

These data points were gathered from patent US20250333407A1.
